assay: 384-well plate pilot, post-Golgi transport modulator project, inhibition of yeast transport mutant growth (AID 636); details: absorbance 615 nm, about 18 h, stronger effect = higher value
inhibition for assorted compounds
attribute-measured: inhibition (%)

{"columns": ["compound", "reported-result"],
 "data": [
  ["C=CCn1c(SCc2ccc(C#N)cc2)nnc1-c1cccc(Cl)c1", -2.21],
  ["Cc1ccccc1-c1nc(Cc2ccccc2)no1", -0.51],
  ["CC(=O)C1=C(O)C(=O)N(c2ccc(C(=O)O)cc2)C1c1ccccc1 (stereo unspecified)", -0.66],
  ["O=C(COc1ccc(Cl)cc1)NCc1nnc(SCC(=O)Nc2ccc3c(c2)OCCO3)o1", 2.82],
  ["CCOc1ccc(-c2noc(-c3ccncc3)n2)cc1OCC", -6.13],
  ["CC(=O)c1ccc(NS(=O)(=O)c2ccccc2)cc1", 4.42],
  ["O=C(CN(CCc1ccccc1)C(=O)CNS(=O)(=O)c1ccccc1)NCC1CCCO1 (stereo unspecified)", -0.81],
  ["Cc1cc(N2C(=O)C3C4C=CC(C4)C3C2=O)ccc1Br (stereo unspecified)", -6.58],
  ["CCCCCCC(C)n1[nH]c(=O)c2c(C)cc(=O)[nH]c21 (stereo unspecified)", -1.73],
  ["C=CCn1c(C)cc(C(=O)CSc2nc3ccccc3o2)c1C", -2.84],
  ["COc1ccc(-c2cc(C(=O)Nc3ccc(C)cc3)no2)cc1", -3.11]
]}

----------
assay: 384-well plate pilot, post-Golgi transport modulator project, inhibition of yeast transport mutant growth (AID 636); conditions: absorbance 615 nm, about 18 h, stronger effect = higher value
inhibition for assorted compounds

{"columns": ["compound", "inhibition / %"],
 "data": [
  ["Nc1cc(-c2ccccc2)ccc1O", -7.16],
  ["O=C(C1CCCN(S(=O)(=O)c2ccc(Br)s2)C1)N1CCCCCC1 (configuration not stated)", -3.16],
  ["O=C(CCN1C(=O)COc2ccccc21)N1CCN(c2ccccn2)CC1", -2.08],
  ["N#C/C(=C(/O)CN1CCOCC1)c1nc2ccccc2s1", 2.73],
  ["CC(C)OC(=O)CSc1nc2cccnc2n1C1CCCCC1", -5.33],
  ["CCN(CC)CCn1c2ccccc2c2nc(C)sc21", -5.32],
  ["Cn1c(=O)c2c(nc(NCCCO)n2C/C=C/c2ccccc2)n(C)c1=O", -4.08],
  ["Cc1nnc(SCC(=O)N2CC(=O)Nc3ccccc32)n1-c1ccccc1", -4.53],
  ["O=C1CC(N2CCOCC2)C(=O)N1c1ccc2c(c1)OCO2 (configuration not stated)", -2.11],
  ["CCSC1=NCN(CCCC(=O)O)CN1", 0.13],
  ["CCOC(=O)c1ccc(NC(=O)CSCc2ccco2)cc1", -5.45],
  ["O=S(=O)(Nc1nc2ccccc2nc1NCc1ccco1)c1ccc(Cl)cc1", -4.42]
]}

----------
assay: growth suppression of beta-catenin knockout HCT116, pilot screen, human colon tumor cells (AID 823); conditions: CellTiter-Glo, 60 h, at 10 µM, stronger effect = lower value;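 further: 0% = wells killed by 20 µM Hyamine and 100% = untreated DMSO cell wells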
Inconclusive results are not listed.
viability for assorted compounds

{"columns": ["compound", "viability / %"],
 "data": [
  ["O=c1c2ccccc2[nH]c(=S)n1Cc1cccnc1", 103],
  ["COC(=O)c1cn(NC(=O)c2ccncc2)c(=O)c2ccccc12", 98.3],
  ["Cc1cccc(N2CCN(C(=O)c3cc4c(=O)n(C)c5ccccc5c4n3C)CC2)c1C", 61.1],
  ["Cc1cc(-c2nnc(-c3cc4ccccc4oc3=O)o2)c(C)n1-c1ccccc1", 79.7],
  ["COCCOC(=O)C1=C(C)NC2=C(C(=O)CCC2)C1c1ccc2c(c1)OCO2 (stereo not drawn)", 93.9],
  ["CCCn1c(C(O)c2ccc3c(c2)OCO3)nc2ccccc21 (stereo not drawn)", 100],
  ["NC(=O)c1ccsc1NC(=O)C1CC1", 103],
  ["CC(=O)C(Sc1ccc2nnc(-c3ccc(F)cc3)n2n1)C(C)=O", 91],
  ["COc1ccc(C2N(c3ccc(Cl)cc3)C(=O)C3CCCN32)cc1 (stereo not drawn)", 101],
  ["COc1ccc(S(=O)(=O)Cc2ccc(C(=O)NCc3ccco3)o2)cc1", 104],
  ["CCCC(=O)NCCCc1nc2ccccc2n1CC", 100],
  ["O=C(Cn1cnc2c(nnn2-c2ccccc2)c1=O)NCCc1ccccc1", 105],
  ["CC(=O)Nc1ccc(-n2c(C)c(C(C)=O)c(C(C)=O)c2C)cc1", 102],
  ["Cc1onc(-c2ccccc2)c1C(=O)Nc1cccc(C#N)c1", 96.5],
  ["CCCCN(C(=O)NC(=O)Nc1nc2ccc(OC)cc2s1)S(C)(=O)=O", 92.6],
  ["COc1ccccc1NC(=O)C1C2C=CC3(CN(Cc4cccnc4)C(=O)C13)O2 (stereo not drawn)", 98.2],
  ["CCOC(=O)c1cnc2c(C#N)c(C)nn2c1-c1ccccc1", 94],
  ["CCCN1CCN(C(=O)C2CCN(S(=O)(=O)c3ccc4c(c3)oc(=O)n4C)CC2)CC1", 108],
  ["CCOc1ccc(NC(=O)CSc2nnc(-c3ccccc3)n2N)cc1", 93.8],
  ["Brc1ccc(CSc2ncn[nH]2)cc1", 95.3],
  ["CCOC(=O)c1c(N)sc2c(OC)c(Br)ccc12", 99.8],
  ["Cc1ccc(CC(CC(=O)O)C(=O)NC2CCCCC2)cc1 (stereo not drawn)", 101],
  ["Cc1cccc2sc(NC(=O)c3ccc(Cl)s3)nc12", 68.7]
]}
